Where these numbers come from: patent US20240335431A1

Record form. Attribute: HH CLint. Fill in for each entry.
Experiment: Human hepatocyte intrinsic clearance assay
Format: in vitro ADME
Conditions: human hepatocytes
Give the quantity in μl/min/1E6, number only.

[in] Please report the recorded HH CLint for Cc1c(C(=O)C2CCN(C(=O)[C@H]3NC[C@@H]4C[C@@H]43)CC2)c2ccncc2n1-c1ccc(F)cc1C(=O)N(C(C)C)[C@H](C)C(F)(F)F (single isomer, unassigned) .
[out] 3.2

[in] Next compound: COCCN(C)CCC[C@H](C(C)C)N1CCC(C(=O)c2cn(-c3ccc(F)cc3C(=O)N(C(C)C)C(C)C)c3cnccc23)CC1 (racemic)
[out] 3.8

[in] Next compound: Cc1c(C(=O)C2CCN(C(=O)[C@@H]3CCC(C)(C)N3)CC2)c2ccncc2n1-c1ccc(F)cc1C(=O)N(C(C)C)C(C)C (single isomer, unassigned) [Compound 56-2]
[out] 3.4
